Values from patent US9517279B2

- Target desc: D2^low (Rattus norvegicus)
- Construct: membrane-containing homogenates of rat corpus striatum tissue
- Sequence (P61169 whole entry): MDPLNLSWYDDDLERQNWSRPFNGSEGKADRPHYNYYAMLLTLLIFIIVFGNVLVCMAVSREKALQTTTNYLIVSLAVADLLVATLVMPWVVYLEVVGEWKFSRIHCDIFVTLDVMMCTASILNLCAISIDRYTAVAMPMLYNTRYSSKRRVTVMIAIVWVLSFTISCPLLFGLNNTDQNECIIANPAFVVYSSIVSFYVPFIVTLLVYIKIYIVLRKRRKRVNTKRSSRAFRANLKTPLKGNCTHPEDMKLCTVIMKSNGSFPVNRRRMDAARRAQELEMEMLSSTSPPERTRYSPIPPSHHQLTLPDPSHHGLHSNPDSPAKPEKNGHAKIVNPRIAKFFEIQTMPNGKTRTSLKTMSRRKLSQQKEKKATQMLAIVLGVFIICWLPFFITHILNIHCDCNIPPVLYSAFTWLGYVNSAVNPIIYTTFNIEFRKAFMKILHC
- Test method notes: Competitive radioreceptor binding, D2 low-affinity state, rat striatum [3H]domperidone
Recorded pKi for the following compounds
Value format note: pKi is -log10 of concentration (mol/L); just state the number.

The following compounds have reported results that may help.
Compound | pKi
CCN1CCc2cc(OCCCF)cc3c2[C@H]1Cc1ccc(O)c(O)c1-3 | 5.80
CCCN1CCc2cc(OCCF)cc3c2[C@H]1Cc1ccc(O)c(O)c1-3 [8b, R(−)-2-Fluoroethyoxy-NPA] | 6.00
CCN1CCc2cc(OCCF)cc3c2[C@H]1Cc1ccc(O)c(O)c1-3 | 5.62

Here is another compound to look at.
Record CCCN1CCc2cc(OC)cc3c2[C@H]1Cc1ccc(O)c(O)c1-3 [2b, 2-MeO-NPA, reference compound] . Reported pKi: 6.09
